TEST PROTOCOL: Toxicokinetics from toxicological studies in dogs, daily oral (gavage) administration
Format: in vivo, dog
CONDITION NOTES: male, dog, plasma, po, 100 mg/kg, CBD 100 mg/kg oral, Day 1, males, Geometric Mean; read-out: AUC0-t
Experimental: Samples were taken from the jugular vein into lithium heparin. Samples were mixed gently by hand then continuously for at least 2 minutes on automatic mixer and placed in a Kryorack until centrifugation, which was carried out at approximately 4° C. as soon as practicable. The resultant plasma was separated under low light conditions, transferred to uniquely labelled clear glass vials, placed in light proof boxes and frozen immediately at <−50° C.
QUANTITY: AUC0-t (ng·h/mL)
Answers are plain numbers, in ng·h/mL.

Reported AUC0-t of C=C(C)[C@@H]1CCC(C)=C[C@H]1c1c(O)cc(CCCCC)cc1O [CBD, Cannabidiol] : 31900

Where do these numbers come from? They come from patent US11684598B2.
